FYI, the data here is from PubChem BioAssay (NCI).

# System: MALME-3M melanoma
# METHOD_DESCRIPTION: NCI tumour cell line growth inhibition, 48 h
What TGI was measured for each of the following?

[Q] Identify measured TGI corresponding to "Cc1cccc(-c2cc(=O)c3cc(C)cnc3[nH]2)c1"
[A] > 100 µM

[Q] Identify measured TGI corresponding to "CN(C)/C=C/C(=O)c1cccc(C(=O)/C=C/N(C)C)n1"
[A] > 100 µM

[Q] Identify measured TGI corresponding to "CSC(=N/N=C(\C)c1ccc(S(=O)(=O)N(C)c2ccccc2)cc1)SC"
[A] > 100 µM

[Q] Identify measured TGI corresponding to "Oc1cccc(-c2cn3cc(Cl)ccc3n2)c1"
[A] > 100 µM

[Q] Identify measured TGI corresponding to CC1=NNC(N)=N/C1=C\C(Sc1ccc(Cl)cc1)c1ccc(Cl)cc1Cl (stereo unspecified)
[A] 28.8 µM

[Q] Identify measured TGI corresponding to "Nc1ccc(C(=O)N/C(=C\c2ccc3c(c2)OCO3)c2nc3ccc4c(c3[nH]2)C(=O)c2ccccc2C4=O)cc1"
[A] > 100 µM

[Q] Identify measured TGI corresponding to "Clc1ccc2c(NCCNc3nc(Cl)nc4ccccc34)ccnc2c1"
[A] 3.47 µM

[Q] Identify measured TGI corresponding to "O=C(O)CSc1nnc(COc2ccccc2)n1-c1ccccc1"
[A] > 100 µM

[Q] Identify measured TGI corresponding to CCN(CC)CCC1(C(=O)OC)SCCc2ccc(C)cc21 (stereo unspecified)
[A] > 100 µM

[Q] Identify measured TGI corresponding to "Cn1c(-c2cccs2)cc(-c2ccsc2)c1-c1ccsc1"
[A] > 100 µM

[Q] Identify measured TGI corresponding to CC1C/C(=C\c2ccc(O)c(O)c2)C(=O)/C(=C/c2ccc(O)c(O)c2)C1 (stereo unspecified)
[A] 25.1 µM
